# credit: patent US20250084056A1

Target of assay: Cyclin E1 (Homo sapiens, UniProt P24864+Q96SW2)
Sequence (P24864 whole entry): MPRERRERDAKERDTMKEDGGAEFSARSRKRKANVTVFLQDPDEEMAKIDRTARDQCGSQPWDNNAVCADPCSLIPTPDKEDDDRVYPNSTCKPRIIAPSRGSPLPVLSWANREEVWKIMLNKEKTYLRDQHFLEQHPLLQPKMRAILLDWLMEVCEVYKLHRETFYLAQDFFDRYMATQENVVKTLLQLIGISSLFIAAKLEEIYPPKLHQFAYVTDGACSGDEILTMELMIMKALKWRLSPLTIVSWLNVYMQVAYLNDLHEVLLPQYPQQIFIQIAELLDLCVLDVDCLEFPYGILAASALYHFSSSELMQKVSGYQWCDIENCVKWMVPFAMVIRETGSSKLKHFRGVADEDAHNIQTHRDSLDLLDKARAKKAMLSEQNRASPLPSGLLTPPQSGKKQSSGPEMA
Sequence (Q96SW2 whole entry): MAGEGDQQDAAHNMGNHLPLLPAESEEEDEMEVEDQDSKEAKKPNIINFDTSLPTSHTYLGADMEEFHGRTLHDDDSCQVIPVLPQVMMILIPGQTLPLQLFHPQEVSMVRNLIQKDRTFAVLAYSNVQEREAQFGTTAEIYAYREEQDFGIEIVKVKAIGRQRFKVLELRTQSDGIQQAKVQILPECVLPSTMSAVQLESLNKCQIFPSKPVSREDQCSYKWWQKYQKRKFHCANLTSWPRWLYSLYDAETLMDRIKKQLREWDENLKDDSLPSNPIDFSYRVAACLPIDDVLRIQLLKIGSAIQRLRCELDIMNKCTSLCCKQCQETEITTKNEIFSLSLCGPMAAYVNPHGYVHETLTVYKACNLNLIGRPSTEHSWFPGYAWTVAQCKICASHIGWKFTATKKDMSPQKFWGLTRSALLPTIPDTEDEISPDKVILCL
Sequence (Q16531 whole entry partner): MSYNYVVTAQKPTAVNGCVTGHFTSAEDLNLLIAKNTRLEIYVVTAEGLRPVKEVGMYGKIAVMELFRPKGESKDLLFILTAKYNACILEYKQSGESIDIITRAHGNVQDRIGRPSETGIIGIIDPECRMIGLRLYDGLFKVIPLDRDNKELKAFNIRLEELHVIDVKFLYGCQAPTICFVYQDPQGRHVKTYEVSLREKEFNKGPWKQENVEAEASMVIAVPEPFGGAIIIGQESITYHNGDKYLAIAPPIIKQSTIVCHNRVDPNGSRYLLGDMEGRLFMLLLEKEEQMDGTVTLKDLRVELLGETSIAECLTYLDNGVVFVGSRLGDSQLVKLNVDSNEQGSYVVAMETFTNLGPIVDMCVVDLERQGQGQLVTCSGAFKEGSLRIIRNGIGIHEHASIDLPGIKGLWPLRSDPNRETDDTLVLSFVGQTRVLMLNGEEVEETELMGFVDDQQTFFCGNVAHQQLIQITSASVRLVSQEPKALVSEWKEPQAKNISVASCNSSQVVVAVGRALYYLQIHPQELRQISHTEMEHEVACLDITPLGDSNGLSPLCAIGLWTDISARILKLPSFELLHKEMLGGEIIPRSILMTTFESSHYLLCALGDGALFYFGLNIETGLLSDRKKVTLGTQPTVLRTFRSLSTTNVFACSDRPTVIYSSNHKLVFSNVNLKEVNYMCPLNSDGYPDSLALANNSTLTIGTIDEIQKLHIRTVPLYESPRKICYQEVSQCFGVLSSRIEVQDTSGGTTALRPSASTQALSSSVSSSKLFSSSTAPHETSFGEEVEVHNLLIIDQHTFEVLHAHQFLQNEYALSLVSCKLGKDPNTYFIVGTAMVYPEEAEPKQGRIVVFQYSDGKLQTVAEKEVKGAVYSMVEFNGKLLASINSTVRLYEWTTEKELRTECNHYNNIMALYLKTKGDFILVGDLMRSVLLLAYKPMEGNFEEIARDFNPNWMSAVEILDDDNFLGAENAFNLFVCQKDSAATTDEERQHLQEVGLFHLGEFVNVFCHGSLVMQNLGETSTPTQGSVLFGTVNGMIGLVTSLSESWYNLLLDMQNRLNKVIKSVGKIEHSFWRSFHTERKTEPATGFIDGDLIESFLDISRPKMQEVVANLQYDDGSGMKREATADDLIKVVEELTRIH
Assay overview: Cyclin E1 Cellular Degradation Assay (MSD)
Type: cell-based
Design: endogenous in cells; host or cells: OVCAR3
Condition details: selectivity for degradation of Cyclin E1 over GSPT1
# maps each entry to its Ratio of GSPT1 DC50/Cyclin E1 DC50
Recorded metric: Ratio of GSPT1 DC50/Cyclin E1 DC50

{"columns": ["Molecule", "Recorded metric", "Experimental result"],
 "data": [
  ["COc1c(COC(=O)Nc2ccc(Oc3ccc(F)cc3Cl)cc2C)ccc2c1C(=O)N(C1CCC(=O)NC1=O)C2 (stereo not shown)", "Ratio of GSPT1 DC50/Cyclin E1 DC50", ">95"],
  ["O=C1CCC(N2Cc3ccc(COC(=O)Nc4ccc(Oc5ccccc5)cc4)c(O[C@@H]4CCCOC4)c3C2=O)C(=O)N1 (stereo partly shown)", "Ratio of GSPT1 DC50/Cyclin E1 DC50", ">635"],
  ["COc1c(COC(=O)Nc2ccc(Oc3ccc(F)cc3Cl)cc2)ccc2c1C(=O)N(C1CCC(=O)NC1=O)C2 (stereo not shown)", "Ratio of GSPT1 DC50/Cyclin E1 DC50", ">236"],
  ["COc1c(COC(=O)Nc2ccc(N(C)c3cccc(F)c3)cc2)ccc2c1C(=O)N(C1CCC(=O)NC1=O)C2 (stereo not shown)", "Ratio of GSPT1 DC50/Cyclin E1 DC50", ">40"],
  ["COc1c(COC(=O)Nc2ccc(Oc3ccc(F)cc3C)cc2F)ccc2c1C(=O)N(C1CCC(=O)NC1=O)C2 (stereo not shown)", "Ratio of GSPT1 DC50/Cyclin E1 DC50", ">51"],
  ["O=C1CCC(N2Cc3ccc(COC(=O)Nc4ccc(Oc5ccccc5)cc4)c(Oc4cccnc4)c3C2=O)C(=O)N1 (stereo not shown)", "Ratio of GSPT1 DC50/Cyclin E1 DC50", ">82"],
  ["COc1c(COC(=O)Nc2ccc(Oc3cccc(Br)c3)cc2)ccc2c1C(=O)N(C1CCC(=O)NC1=O)C2 (stereo not shown)", "Ratio of GSPT1 DC50/Cyclin E1 DC50", ">123"]
]}

====

Test system: Phospho-Rb (Ser807/811)
Assay overview: Phospho-Retinoblastoma (pRB) Cellular Assay
Type: cell-based
Condition details: Homo sapiens, OVCAR-3; NIH OVCAR3 cells, 24 hours; concentration giving 50% response
pIC50: −log10 of the molar value.

{"columns": ["Compound", "pIC50"],
 "data": [
  ["COc1ccccc1Oc1ccc(NC(=O)OCc2ccc3c(c2OC)C(=O)N(C2CCC(=O)NC2=O)C3)cc1 (stereo not shown)", 5.64],
  ["CC(C)Oc1c(COC(=O)Nc2ccc(Oc3ccc(F)c(F)c3)cc2)ccc2c1C(=O)N([C@H]1CCC(=O)NC1=O)C2 (single isomer, unassigned)", 7.01],
  ["CC(C)Oc1c(COC(=O)Nc2ccc(Oc3cccc(Cl)c3)cc2)ccc2c1C(=O)N(C1CCC(=O)NC1=O)C2 (stereo not shown)", 6.53],
  ["O=C1CCC(N2Cc3ccc(COC(=O)Nc4ccc(Oc5ccc(F)cc5Cl)cc4)c(OC4CCC4)c3C2=O)C(=O)N1 (stereo not shown)", 6.87],
  ["COc1cc(F)c(F)cc1Oc1ccc(NC(=O)OCc2ccc3c(c2OC)C(=O)N(C2CCC(=O)NC2=O)C3)c(C)c1 (stereo not shown)", 6.09],
  ["COc1c(COC(=O)Nc2ccc(Oc3ccccc3Cl)cc2)ccc2c1C(=O)N(C1CCC(=O)NC1=O)C2 (stereo not shown)", 7.14],
  ["CC(C)Oc1c(COC(=O)Nc2ccc(Oc3ccc(F)c(F)c3)cc2)ccc2c1C(=O)N(C1CCC(=O)NC1=O)C2 (stereo not shown)", 6.95],
  ["NC(=O)COc1c(COC(=O)Nc2ccc(Oc3ccc(F)c(F)c3)cc2)ccc2c1C(=O)N(C1CCC(=O)NC1=O)C2 (stereo not shown)", 7.36],
  ["O=C1CCC(N2Cc3ccc(COC(=O)Nc4ccc(Oc5ccc(F)cc5)cc4)c(OC4CCOCC4)c3C2=O)C(=O)N1 (stereo not shown)", 7.38],
  ["O=C1CCC(N2Cc3ccc(COC(=O)Nc4ccc(Oc5ccc(F)c(F)c5)cc4)c(O[C@H]4CC[C@@H](O)CC4)c3C2=O)C(=O)N1 (stereo partly shown)", 8.10],
  ["O=C1CCC(N2Cc3ccc(COC(=O)Nc4ccc(Oc5cccc(F)c5)cc4)c(O[C@@H]4CCCOC4)c3C2=O)C(=O)N1 (stereo partly shown)", 7.18],
  ["O=C1CCC(N2Cc3ccc(COC(=O)Nc4ccc(Oc5cccc(F)c5F)cc4)c(Oc4ccccc4)c3C2=O)C(=O)N1 (stereo not shown)", 7.08],
  ["O=C1CCC(N2Cc3ccc(COC(=O)Nc4ccc(Oc5ccccc5)cc4)c(O[C@@H]4CCCOC4)c3C2=O)C(=O)N1 (stereo partly shown)", 6.84]
]}
